Biological target: recombinant human ACC1 (rhACC1) (Homo sapiens, UniProt Q13085, DEL44-44)
Construct: recombinant baculovirus containing full length human ACC1 cDNA; made in house; host or cells: SF9 insect cells, recombinant baculovirus
Experiment: recombinant hACC1 Transcreener ADP detection FP assay
Assay type: biochemical
Details: 50 μM ATP, 30 μM acetyl-CoA
Experimental: For example direct inhibition of ACC activity, for the compound of Formula (I) was determined using preparations of recombinant human ACC1 (rhACC1) and recombinant human ACC2 (rhACC2). […] [2] […] The data was acquired on a Envision Fluorescence reader (Perkinelmer) using a 620 excitation Cy5 FP general dual mirror, 620 excitation Cy5 FP filter, 688 emission (S) and a 688 (P) emission filter. […]
Binning of IC50 into classes: low bracket (below 8 nM), middle bracket (8 nM to below 20 nM), high bracket (20 nM or more)

Molecule smiles	Class name
CC(C)n1ncc2c1C(=O)CC1(CCN(C(=O)c3cnc4ccc(OCC(N)=O)cc4c3)CC1)C2	high bracket
CC(C)(C)n1cc2c(n1)C(=O)CC1(CCN(C(=O)c3cnc4ccc(C(N)=O)cc4c3)CC1)C2	high bracket
CC(C)n1ncc2c1C(=O)CC1(CCN(C(=O)c3ccc4c(C(N)=O)n[nH]c4c3)CC1)C2	low bracket
CC(C)n1ncc2c1C(=O)CC1(CCN(C(=O)c3ccc4c(C#N)n[nH]c4c3)CC1)C2	middle bracket
CC(C)n1ncc2c1C(=O)CC1(CCN(C(=O)c3cnc4c(C#N)c[nH]c4c3)CC1)C2	high bracket
CC(C)n1ncc2c1C(=O)CC1(CCN(C(=O)c3cnc4[nH]cc(C(N)=O)c4c3)CC1)C2	middle bracket
CNc1nc2cc(C(=O)N3CCC4(CC3)CC(=O)c3nn(C(C)(C)C)cc3C4)ccc2[nH]1	middle bracket
CC(C)(C)n1cc2c(n1)C(=O)CC1(CCN(C(=O)c3ccc4ccc(N)nc4c3)CC1)C2	low bracket
CNc1nc2cc(C(=O)N3CCC4(CC3)CC(=O)c3c(cnn3C(C)C)C4)ccc2[nH]1	middle bracket
CC(C)n1ncc2c1C(=O)CC1(CCN(C(=O)c3ccc4[nH]c(C(N)=O)nc4c3)CC1)C2	high bracket
CNC(=O)c1n[nH]c2ccc(C(=O)N3CCC4(CC3)CC(=O)c3nn(C(C)(C)C)cc3C4)cc12	low bracket
CNC(=O)c1n[nH]c2ccc(C(=O)N3CCC4(CC3)CC(=O)c3c(cnn3C(C)C)C4)cc12	middle bracket
CC(C)n1ncc2c1C(=O)CC1(CCN(C(=O)c3ccc4nc(N)ccc4c3)CC1)C2	middle bracket
CC(C)(C)n1cc2c(n1)C(=O)CC1(CCN(C(=O)c3ccc4[nH]nc(C(=O)NCC(F)(F)F)c4c3)CC1)C2	low bracket

----------
target: recombinant human ACC1 (rhACC1) (Homo sapiens, UniProt Q13085, DEL44-44); construct: recombinant baculovirus containing full length human ACC1 cDNA; assay: recombinant hACC1 Transcreener ADP detection FP assay; conditions: 50 μM ATP, 30 μM acetyl-CoA

Molecule	IC50
CCNC(=O)c1n[nH]c2ccc(C(=O)N3CCC4(CC3)CC(=O)c3c(cnn3C(C)C)C4)cc12 [Example 10]	6.1 nM
CC(C)(C)n1cc2c(n1)C(=O)CC1(CCN(C(=O)c3ccc4c(C(N)=O)n[nH]c4c3)CC1)C2 [Example 29]	8.6 nM
CC(C)n1ncc2c1C(=O)CC1(CCN(C(=O)c3cnc4c(Cl)c[nH]c4c3)CC1)C2 [Example 16]	6.7 nM
CC(C)n1ncc2c1C(=O)CC1(CCN(C(=O)c3ccc4[nH]nc(C(=O)NCC(F)(F)F)c4c3)CC1)C2 [Example 11]	14 nM

----------
target: recombinant human ACC2 (rhACC2) (Homo sapiens, UniProt O00763, V2141I); construct: a full length Cytomax clone of ACC2 was purchased from Cambridge Bioscience Limited; assay: recombinant hACC2 Transcreener ADP detection FP assay; details: 50 μM ATP, 30 μM acetyl-CoA
Sequence (O00763 whole entry V2141I): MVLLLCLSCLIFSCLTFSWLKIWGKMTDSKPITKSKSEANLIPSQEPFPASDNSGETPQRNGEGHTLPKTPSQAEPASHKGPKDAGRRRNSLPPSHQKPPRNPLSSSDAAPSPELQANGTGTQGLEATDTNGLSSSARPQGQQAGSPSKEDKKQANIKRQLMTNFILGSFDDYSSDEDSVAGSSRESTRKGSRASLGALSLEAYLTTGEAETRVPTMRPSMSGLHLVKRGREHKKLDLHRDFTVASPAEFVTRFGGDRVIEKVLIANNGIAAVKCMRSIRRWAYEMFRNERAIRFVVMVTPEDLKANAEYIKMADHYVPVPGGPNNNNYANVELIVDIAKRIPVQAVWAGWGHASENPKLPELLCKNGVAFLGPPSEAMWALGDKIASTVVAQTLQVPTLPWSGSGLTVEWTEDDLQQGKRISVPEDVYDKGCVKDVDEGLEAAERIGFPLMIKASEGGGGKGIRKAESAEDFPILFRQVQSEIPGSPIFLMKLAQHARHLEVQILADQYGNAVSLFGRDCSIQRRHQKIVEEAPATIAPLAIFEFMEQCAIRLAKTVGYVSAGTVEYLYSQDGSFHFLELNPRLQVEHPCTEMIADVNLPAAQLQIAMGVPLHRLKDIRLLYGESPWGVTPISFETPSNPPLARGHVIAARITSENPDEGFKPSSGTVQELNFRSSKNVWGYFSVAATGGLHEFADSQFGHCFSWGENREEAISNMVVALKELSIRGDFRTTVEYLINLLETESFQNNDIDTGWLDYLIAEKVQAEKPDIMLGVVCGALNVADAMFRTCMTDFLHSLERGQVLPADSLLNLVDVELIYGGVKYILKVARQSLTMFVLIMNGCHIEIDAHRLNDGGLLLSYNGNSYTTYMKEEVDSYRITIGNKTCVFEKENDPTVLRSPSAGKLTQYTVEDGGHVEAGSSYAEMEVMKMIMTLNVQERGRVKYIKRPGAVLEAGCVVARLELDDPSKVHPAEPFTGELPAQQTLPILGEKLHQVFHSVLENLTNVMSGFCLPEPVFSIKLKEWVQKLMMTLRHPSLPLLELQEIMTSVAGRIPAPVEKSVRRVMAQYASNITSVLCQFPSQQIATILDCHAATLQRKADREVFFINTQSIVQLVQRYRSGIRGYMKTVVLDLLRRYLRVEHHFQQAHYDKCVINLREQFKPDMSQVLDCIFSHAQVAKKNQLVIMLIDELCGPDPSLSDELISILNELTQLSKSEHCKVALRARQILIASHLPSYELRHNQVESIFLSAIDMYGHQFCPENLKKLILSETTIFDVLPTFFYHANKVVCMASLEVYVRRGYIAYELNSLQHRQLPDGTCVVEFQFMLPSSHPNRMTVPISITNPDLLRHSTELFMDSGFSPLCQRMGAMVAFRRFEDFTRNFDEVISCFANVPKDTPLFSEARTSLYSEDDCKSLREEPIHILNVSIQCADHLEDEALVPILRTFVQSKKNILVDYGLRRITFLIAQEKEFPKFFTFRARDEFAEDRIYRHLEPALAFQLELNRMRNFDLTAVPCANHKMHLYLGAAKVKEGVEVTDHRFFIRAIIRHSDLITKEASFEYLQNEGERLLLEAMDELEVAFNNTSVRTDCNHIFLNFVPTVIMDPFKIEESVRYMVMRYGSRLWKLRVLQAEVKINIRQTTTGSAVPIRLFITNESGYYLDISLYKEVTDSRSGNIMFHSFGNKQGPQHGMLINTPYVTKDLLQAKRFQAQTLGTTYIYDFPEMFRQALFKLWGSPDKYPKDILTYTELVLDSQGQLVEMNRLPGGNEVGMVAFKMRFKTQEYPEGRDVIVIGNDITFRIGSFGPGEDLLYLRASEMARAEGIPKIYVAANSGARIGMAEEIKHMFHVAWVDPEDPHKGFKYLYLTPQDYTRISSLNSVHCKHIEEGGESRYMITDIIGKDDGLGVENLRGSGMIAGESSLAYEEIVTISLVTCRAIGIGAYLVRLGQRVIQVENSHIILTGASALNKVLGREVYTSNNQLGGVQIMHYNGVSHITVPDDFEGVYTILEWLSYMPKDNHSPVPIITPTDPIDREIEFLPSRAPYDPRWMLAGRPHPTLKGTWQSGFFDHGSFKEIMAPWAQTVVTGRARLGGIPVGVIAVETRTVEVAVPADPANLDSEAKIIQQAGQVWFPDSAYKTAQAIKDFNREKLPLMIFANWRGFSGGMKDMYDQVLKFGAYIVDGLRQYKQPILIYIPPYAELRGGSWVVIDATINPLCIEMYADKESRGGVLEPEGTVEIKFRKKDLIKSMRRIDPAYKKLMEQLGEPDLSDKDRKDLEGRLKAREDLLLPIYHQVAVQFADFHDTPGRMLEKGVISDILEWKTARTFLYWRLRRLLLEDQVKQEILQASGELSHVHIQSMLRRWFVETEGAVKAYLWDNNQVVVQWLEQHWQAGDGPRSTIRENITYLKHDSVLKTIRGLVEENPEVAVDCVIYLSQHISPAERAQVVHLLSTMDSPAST

Molecule smiles	IC50 / nM
CC(C)n1ncc2c1C(=O)CC1(CCN(C(=O)c3ccc4c(C(N)=O)c[nH]c4c3)CC1)C2	1.4
CNC(=O)c1n[nH]c2ccc(C(=O)N3CCC4(CC3)CC(=O)c3nn(C(C)(C)C)cc3C4)cc12	1.3
COc1cc2cc(C(=O)N3CCC4(CC3)CC(=O)c3c(cnn3C(C)C)C4)cnc2cc1C(N)=O	6.9
CC(C)(C)n1ncc2c1C(=O)CC1(CCN(C(=O)c3ccc4[nH]nc(C(N)=O)c4c3)CC1)C2	2.1
CC(C)n1ncc2c1C(=O)CC1(CCN(C(=O)c3ccc4[nH]nc(C(N)=O)c4c3)CC1)C2	3.1
CC(C)n1ncc2c1C(=O)CC1(CCN(C(=O)c3cnc4[nH]c(C(N)=O)cc4c3)CC1)C2	15

----------
molecular target: recombinant human ACC2 (rhACC2) (Homo sapiens, UniProt O00763, V2141I); construct: a full length Cytomax clone of ACC2 was purchased from Cambridge Bioscience Limited; assay: recombinant hACC2 Transcreener ADP detection FP assay; conditions: 50 μM ATP, 30 μM acetyl-CoA
pIC50: −log10 of the molar value.
pIC50 for assorted compounds

Molecule smiles	pIC50
CC(C)n1ncc2c1C(=O)CC1(CCN(C(=O)c3ccc4[nH]c(C(N)=O)nc4c3)CC1)C2	8.17
CC(C)(C)n1cc2c(n1)C(=O)CC1(CCN(C(=O)c3ccc4c(C#N)n[nH]c4c3)CC1)C2	8.43
NC(=O)c1n[nH]c2ccc(C(=O)N3CCC4(CC3)CC(=O)c3c(cnn3C35CC(C3)C5)C4)cc12	8.08
CC(C)(C)n1cc2c(n1)C(=O)CC1(CCN(C(=O)c3ccc4c(C(N)=O)n[nH]c4c3)CC1)C2	8.77
CC(C)(C)n1cc2c(n1)C(=O)CC1(CCN(C(=O)c3cnc4ccc(OCC(N)=O)cc4c3)CC1)C2	8.42
CC(C)n1ncc2c1C(=O)CC1(CCN(C(=O)c3ccc4c(C(N)=O)n[nH]c4c3)CC1)C2	8.54
CC(C)(C)n1cc2c(n1)C(=O)CC1(CCN(C(=O)c3ccc4[nH]cc(C(N)=O)c4c3)CC1)C2	9.00
CC(C)n1ncc2c1C(=O)CC1(CCN(C(=O)c3ccc4nc(N)ccc4c3)CC1)C2	8.59
CC(C)(C)n1cc2c(n1)C(=O)CC1(CCN(C(=O)c3ccc4ccc(N)nc4c3)CC1)C2	8.89
CC(C)n1ncc2c1C(=O)CC1(CCN(C(=O)c3ccc4c(C#N)n[nH]c4c3)CC1)C2	7.96
CC(C)n1ncc2c1C(=O)CC1(CCN(C(=O)c3ccc4[nH]nc(C(=O)NCC(F)(F)F)c4c3)CC1)C2	8.26
CC(C)(C)n1cc2c(n1)C(=O)CC1(CCN(C(=O)c3ccc4[nH]nc(C(=O)NCC(F)(F)F)c4c3)CC1)C2	8.96
CC(C)n1ncc2c1C(=O)CC1(CCN(C(=O)c3ccc4cc(C(N)=O)[nH]c4c3)CC1)C2	8.52
CC(C)n1ncc2c1C(=O)CC1(CCN(C(=O)c3cnc4c(C(N)=O)c[nH]c4c3)CC1)C2	7.89
CC(C)(C)n1cc2c(n1)C(=O)CC1(CCN(C(=O)c3cnc4c(C(N)=O)c[nH]c4c3)CC1)C2	8.55
CCNC(=O)c1n[nH]c2ccc(C(=O)N3CCC4(CC3)CC(=O)c3nn(C(C)(C)C)cc3C4)cc12	8.77
CC(C)n1ncc2c1C(=O)CC1(CCN(C(=O)c3ccc4[nH]cc(C(N)=O)c4c3)CC1)C2	8.80
CC(C)(C)n1cc2c(n1)C(=O)CC1(CCN(C(=O)c3cnc4ccc(C(N)=O)cc4c3)CC1)C2	8.27
CC(C)(C)n1cc2c(n1)C(=O)CC1(CCN(C(=O)c3cnc4[nH]cc(C(N)=O)c4c3)CC1)C2	8.59
CC(C)n1ncc2c1C(=O)CC1(CCN(C(=O)c3ccc4[nH]c(N)nc4c3)CC1)C2	8.48
CCNC(=O)c1n[nH]c2ccc(C(=O)N3CCC4(CC3)CC(=O)c3c(cnn3C(C)C)C4)cc12	8.57
CC(C)n1ncc2c1C(=O)CC1(CCN(C(=O)c3ccc4ccc(N)nc4c3)CC1)C2	8.00
CC(C)n1ncc2c1C(=O)CC1(CCN(C(=O)c3cnc4c(C#N)c[nH]c4c3)CC1)C2	7.82
CNc1nc2cc(C(=O)N3CCC4(CC3)CC(=O)c3nn(C(C)(C)C)cc3C4)ccc2[nH]1	8.82
O=C1CC2(CCN(C(=O)c3ccc4[nH]ncc4c3)CC2)Cc2cn(C34CC(C3)C4)nc21	8.25
CC(C)(C)n1cc2c(n1)C(=O)CC1(CCN(C(=O)c3ccc4[nH]c(C(N)=O)cc4c3)CC1)C2	8.82
CC(C)n1ncc2c1C(=O)CC1(CCN(C(=O)c3cnc4ccc(OCC(N)=O)cc4c3)CC1)C2	7.70
CC(C)(C)n1cc2c(n1)C(=O)CC1(CCN(C(=O)c3ccc4cc(C(N)=O)[nH]c4c3)CC1)C2	8.55
CNc1nc2cc(C(=O)N3CCC4(CC3)CC(=O)c3c(cnn3C(C)C)C4)ccc2[nH]1	8.52
CC(C)n1ncc2c1C(=O)CC1(CCN(C(=O)c3cnc4c(Cl)c[nH]c4c3)CC1)C2	8.51
